Data credit: PubChem BioAssay AID248

- System: L1210 leukemia ip in BDF1 mice, survival T/C
- assayRemarks: NCI In Vivo Anticancer Drug Screen. Data for tumor model L1210 Leukemia (intraperitoneal) in B6D2F1 (BDF1) mice
- settings: endpoint: mean survival time; dose: 100.0 mg/kg/injection; schedule: Q01DX001 (ip); vehicle: saline with Tween-80; higher = longer survival
Inconclusive results and toxic doses are left out.
parameter: T/C

Sample answers from the record:
Q) What does the data say about its T/C? Entry: CC(=O)Nc1c(Cl)cc(Cl)cc1Cl
A) 109 % of control

Q) Quick one: T/C of OC1OC(COCc2ccccc2)C(OCc2ccccc2)C1OCc1ccccc1 (stereo not given) ?
A) 95 % of control

Q) Can you look up the measured T/C of Nc1nc2c(ncn2-c2ccccc2Cl)c(=O)[nH]1 for me?
A) 95 % of control

Q) Returns the measured T/C for the input compound. Input: O=C1c2cscc2C(O)(c2ccccc2)c2c(Cl)sc(Cl)c21 (stereo not given)
A) 88 % of control

Q) Quick one: T/C of CCCCCCCCCCCC(=O)NC(=S)Nc1ccc(C(=O)O)cc1 ?
A) 103 % of control

Next:
Q) Could you tell me which T/C is on file for CCOC(=O)Cc1cc(O)ccc1O ?
A) 109 % of control

Q) I have this compound here, O=C(NC(=S)Nc1ccc(Cl)c(Cl)c1)c1ccc(Cl)cc1Cl , and I need its recorded T/C.
A) 93 % of control

Q) What measured T/C goes with O=C(CCN1CC1)Oc1ccc(Cl)cc1 ?
A) 97 % of control

Q) Which measured T/C value corresponds to O=c1c(Br)c(-c2ccccc2)nc2ccccn12 ?
A) 95 % of control

Q) If you can, please state the reported T/C value of Cc1ncc(C(=O)c2ccccc2)n1Cc1ccccc1 .
A) 88 % of control

* * *

- Test system: L1210 leukemia ip in BDF1 mice, survival T/C
- assayRemarks: NCI In Vivo Anticancer Drug Screen. Data for tumor model L1210 Leukemia (intraperitoneal) in B6D2F1 (BDF1) mice
- settings: endpoint: mean survival time; dose: 100.0 mg/kg/injection; schedule: Q04DX003 (ip); vehicle: Klucel (hydroxypropylcellulose) (HPC); higher = longer survival
Toxic doses and inconclusive results are not listed.
The entries below are paired with their reported T/C.

Q) Any idea what T/C was measured for CCCCC(C#N)C(=O)OCC (configuration not stated) ?
A) 97 % of control

Q) Which T/C value belongs to Nc1ccc(C(=O)Nc2ccc(Nc3ccncc3)cc2)cc1 ?
A) 108 % of control

Q) Requested field: T/C. Item: CCCCCCCCCCCCCCCCCOc1ccc(I)cc1
A) 91 % of control

***
Q) Given the compound CN(C)c1ncc(C(N)=O)cn1 , what is its reported T/C?
A) 100 % of control

Q) # query: T/C of entry COc1ccc(OC)c(NC(=O)Nc2c(C)n(C)n(-c3ccccc3)c2=O)c1
A) 98 % of control

Q) Field request: T/C | item: ClCc1nc2ccccc2[nH]1
A) 105 % of control

* * *

- System: L1210 leukemia ip in BDF1 mice, survival T/C
- assayRemarks: NCI In Vivo Anticancer Drug Screen. Data for tumor model L1210 Leukemia (intraperitoneal) in B6D2F1 (BDF1) mice
- settings: endpoint: mean survival time; dose: 25.0 mg/kg/injection; schedule: Q01DX001 (ip); vehicle: saline; higher = longer survival
Inconclusive results and toxic doses are left out.
The reader will find reported T/C values listed item by item below.

Worked set:
Q) Look up T/C: CN(C)C=C1C(=O)NC(=O)NC1=O
A) 96 % of control

Q) // returns reported T/C for input N#CSCC(=O)c1ccccc1
A) 113 % of control

Q) For the molecule Nc1ncnc2c1ncn2C1OC(CO)C(O)C1O (stereo unspecified) , what T/C is on record?
A) 103 % of control

Q) Which T/C value is on record for [N-]=[N+]=Nc1nc2c(N)ncnc2n1C1OC(CO)C(O)C1O (stereo unspecified) ?
A) 102 % of control

Q) Item under review: CC/C(C)=N/NCCO . Reported T/C?
A) 101 % of control

Would you kindly look at the next entry?
Q) Give the measured T/C of C=C1C(=O)OC2CCC(O)C12 (stereo unspecified) .
A) 94 % of control

* * *

- Tested on: L1210 leukemia ip in BDF1 mice, survival T/C
- assayRemarks: NCI In Vivo Anticancer Drug Screen. Data for tumor model L1210 Leukemia (intraperitoneal) in B6D2F1 (BDF1) mice
- settings: endpoint: mean survival time; dose: 50.0 mg/kg/injection; schedule: Q04DX003 (ip); vehicle: saline with Tween-80
Inconclusive results and toxic doses are left out. Cut-off read from the data, not from the text of the source: active = T/C of 150% or more; inactive = T/C below 125%.
Just give me one of these, please: yes (active), no (inactive)

Q) Please share the test call associated with O=C1NC(=O)C2(CCCCCC2)N1 .
A) no

Q) Outcome? C[n+]1ccc(Nc2ccc(NC(=O)c3ccc(Nc4cc[n+](C)c5ccc(N)cc45)cc3)cc2)cc1
A) yes

Q) Which result was noted for this compound in the test: O=[As](O)(c1cccc(Cl)c1)C1CCCCC1O (centres undefined)
A) no

Q) Hello, I am checking results. What call was entered for CN(C(=O)/C=C/C(=O)O)c1ccccc1 ?
A) no

Q) For CCNC(C)CC(C)C (centres undefined) , what call appears in the results of this test?
A) no

Q) Call for entry CCOC(=O)c1ccc(N=CNc2ccc(C(=O)OCC)cc2)cc1 :
A) no

Q) Hi team, can someone confirm the assay call for CCC1(CC)N=C2OCCN2C1=O ?
A) no

Q) What is the recorded call for this compound in the test? CCCCCCCCCCCCOC(C(=O)O)(c1ccccc1)c1ccccc1
A) no

Q) Just curious, what result did CC(=O)Nc1ccc(/C=C/c2ccc3ccccc3[n+]2C)cc1 get here?
A) no

* * *

- Test system: L1210 leukemia ip in BDF1 mice, survival T/C
- assayRemarks: NCI In Vivo Anticancer Drug Screen. Data for tumor model L1210 Leukemia (intraperitoneal) in B6D2F1 (BDF1) mice
- settings: endpoint: mean survival time; dose: 100.0 mg/kg/injection; schedule: Q04DX002 (ip); vehicle: Klucel (hydroxypropylcellulose) (HPC); higher = longer survival
- Method: The antitumor activity of compounds was measured in mice bearing transplantable tumors. Survival or tumor size were measured and the results are expressed as the measurement made in the treated group (T) divided by the measurement made in the vehicle treated control group (C). The tumor model used in this assay is L1210 Leukemia (intraperitoneal) in B6D2F1 (BDF1) mice
Toxic doses and inconclusive results are not listed.
T/C by entry:

Q) # T/C lookup, item Brc1cnc(Br)s1
A) 116 % of control

Q) # query: T/C of entry O=C(N/N=C/c1ccc(O)cc1O)c1ccc(O)cc1
A) 92 % of control

Q) Reported T/C for O=C1CN=C(c2ccccc2Cl)c2cc([N+](=O)[O-])ccc2N1 : what is it?
A) 93 % of control

Q) // T/C lookup, key: Clc1ccc(/C=N/c2snc3ccccc23)cc1Cl
A) 92 % of control

---
Q) Entry under review: O=C(N1CCC(CCCc2ccccc2)CC1)C(Cl)(Cl)Cl . Reported T/C?
A) 95 % of control

* * *

Catalogue of T/C values
- System: L1210 leukemia ip in BDF1 mice, survival T/C
- assayRemarks: NCI In Vivo Anticancer Drug Screen. Data for tumor model L1210 Leukemia (intraperitoneal) in B6D2F1 (BDF1) mice
- settings: endpoint: mean survival time; dose: 100.0 mg/kg/injection; schedule: Q04DX003 (ip); vehicle: saline; higher = longer survival
- Description: The antitumor activity of compounds was measured in mice bearing transplantable tumors. Survival or tumor size were measured and the results are expressed as the measurement made in the treated group (T) divided by the measurement made in the vehicle treated control group (C). The tumor model used in this assay is L1210 Leukemia (intraperitoneal) in B6D2F1 (BDF1) mice
Inconclusive results and toxic doses are left out.

Solved entries:
Q) Request body: readout T/C, system L1210 leukemia ip in BDF1 mice, survival T/C, query CCOC(=O)C(NC(C)=O)(C(=O)OCC)C(C)C(O)c1ccc(OC)c(OC)c1O (stereo not given) . Return the value.
A) 92 % of control

Q) Field: T/C (L1210 leukemia ip in BDF1 mice, survival T/C). Entry: NCCCN
A) 97 % of control

Q) Lab request: please report T/C under test system L1210 leukemia ip in BDF1 mice, survival T/C for Cc1cc(Cl)ccc1NC(=O)c1ccccc1Cl
A) 109 % of control

Q) Request - read-out T/C | tested on L1210 leukemia ip in BDF1 mice, survival T/C | compound Cc1c(C(=O)O)c(C(=O)O)c(C)n1-c1ccccc1C(=O)O (tested in a mixture with another compound)
A) 106 % of control

Note: attention shifts to another entry.
Q) // lookup T/C | system=L1210 leukemia ip in BDF1 mice, survival T/C | key= c1cncc(CNc2ncn[nH]2)c1
A) 97 % of control
